Reference for the values: a collection of fitness landscapes (doi:10.1126/science.1257360)

B1: PhoQ; a variant is named by its letters at X, in order, P23837 (parent)
chain: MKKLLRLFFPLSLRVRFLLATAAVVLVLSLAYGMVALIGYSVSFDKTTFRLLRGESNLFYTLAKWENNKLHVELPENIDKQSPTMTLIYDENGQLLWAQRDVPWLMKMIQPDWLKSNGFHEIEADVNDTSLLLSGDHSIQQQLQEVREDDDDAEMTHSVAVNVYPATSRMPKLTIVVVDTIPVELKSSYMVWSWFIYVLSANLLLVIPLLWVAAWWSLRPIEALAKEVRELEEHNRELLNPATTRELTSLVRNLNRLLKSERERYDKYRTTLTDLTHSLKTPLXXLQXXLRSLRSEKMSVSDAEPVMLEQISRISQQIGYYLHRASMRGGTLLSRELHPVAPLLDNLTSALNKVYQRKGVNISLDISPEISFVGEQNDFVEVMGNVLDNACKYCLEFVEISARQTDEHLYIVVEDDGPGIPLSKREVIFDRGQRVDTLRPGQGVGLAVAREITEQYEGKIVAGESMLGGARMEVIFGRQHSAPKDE

variants of: B1; test: enrichment ratio after two sorts for PhoP signalling (ratio (wild type AVST 3.29)); higher = more functional; conditions: with PhoP (E. coli)
In all, about 140,000 sequences were measured (“enrichment ratio after two sorts for PhoP signalling”: median about 0, highest 2% from about 11 on). Only a selection was taken, and the highest values are over-represented in it overall.

{"VARIANT_CODE": "WIRK", "COMPARISON_SYMBOL": "≤", "enrichment ratio": 0.25}
{"VARIANT_CODE": "DIIV", "COMPARISON_SYMBOL": "≤", "enrichment ratio": 0.25}
{"VARIANT_CODE": "SATC", "COMPARISON_SYMBOL": "=", "enrichment ratio": 5.33}
{"VARIANT_CODE": "AEQY", "COMPARISON_SYMBOL": "=", "enrichment ratio": 17.1}
{"VARIANT_CODE": "SSDK", "COMPARISON_SYMBOL": "≤", "enrichment ratio": 0.25}
{"VARIANT_CODE": "ANIY", "COMPARISON_SYMBOL": "=", "enrichment ratio": 0.312}
{"VARIANT_CODE": "IQLV", "COMPARISON_SYMBOL": "≤", "enrichment ratio": 0.25}
{"VARIANT_CODE": "PNNY", "COMPARISON_SYMBOL": "≤", "enrichment ratio": 0.25}
{"VARIANT_CODE": "AEAS", "COMPARISON_SYMBOL": "=", "enrichment ratio": 21.3}
{"VARIANT_CODE": "RAKS", "COMPARISON_SYMBOL": "≤", "enrichment ratio": 0.25}
{"VARIANT_CODE": "AITY", "COMPARISON_SYMBOL": "=", "enrichment ratio": 3.48}
{"VARIANT_CODE": "LYDW", "COMPARISON_SYMBOL": "≤", "enrichment ratio": 0.25}
{"VARIANT_CODE": "TEQY", "COMPARISON_SYMBOL": "=", "enrichment ratio": 12.5}
{"VARIANT_CODE": "HCSR", "COMPARISON_SYMBOL": "≤", "enrichment ratio": 0.25}
{"VARIANT_CODE": "LRFL", "COMPARISON_SYMBOL": "≤", "enrichment ratio": 0.25}
{"VARIANT_CODE": "AEIY", "COMPARISON_SYMBOL": "=", "enrichment ratio": 14.8}
{"VARIANT_CODE": "AEST", "COMPARISON_SYMBOL": "=", "enrichment ratio": 18.4}
{"VARIANT_CODE": "TEYM", "COMPARISON_SYMBOL": "≤", "enrichment ratio": 0.25}
{"VARIANT_CODE": "SATS", "COMPARISON_SYMBOL": "=", "enrichment ratio": 14.2}
{"VARIANT_CODE": "SATD", "COMPARISON_SYMBOL": "≤", "enrichment ratio": 0.25}
{"VARIANT_CODE": "AETY", "COMPARISON_SYMBOL": "=", "enrichment ratio": 16}
{"VARIANT_CODE": "ADIY", "COMPARISON_SYMBOL": "≤", "enrichment ratio": 0.25}
{"VARIANT_CODE": "TMTY", "COMPARISON_SYMBOL": "=", "enrichment ratio": 12.9}
{"VARIANT_CODE": "PTLR", "COMPARISON_SYMBOL": "≤", "enrichment ratio": 0.25}
{"VARIANT_CODE": "SSLI", "COMPARISON_SYMBOL": "=", "enrichment ratio": 18.9}
{"VARIANT_CODE": "HIRM", "COMPARISON_SYMBOL": "≤", "enrichment ratio": 0.25}
{"VARIANT_CODE": "GSMR", "COMPARISON_SYMBOL": "≤", "enrichment ratio": 0.25}
{"VARIANT_CODE": "AEAM", "COMPARISON_SYMBOL": "=", "enrichment ratio": 5.95}
{"VARIANT_CODE": "PRHA", "COMPARISON_SYMBOL": "≤", "enrichment ratio": 0.25}
{"VARIANT_CODE": "ARST", "COMPARISON_SYMBOL": "≤", "enrichment ratio": 0.25}
{"VARIANT_CODE": "GASC", "COMPARISON_SYMBOL": "≤", "enrichment ratio": 0.25}
{"VARIANT_CODE": "VMYM", "COMPARISON_SYMBOL": "≤", "enrichment ratio": 0.25}
{"VARIANT_CODE": "WQIY", "COMPARISON_SYMBOL": "≤", "enrichment ratio": 0.25}
{"VARIANT_CODE": "SIKG", "COMPARISON_SYMBOL": "≤", "enrichment ratio": 0.25}
{"VARIANT_CODE": "TEQN", "COMPARISON_SYMBOL": "=", "enrichment ratio": 34.8}
